Molecular target: Neuronal acetylcholine receptor; alpha4/beta2 (Homo sapiens, UniProt P17787+P43681)
Sequence (P17787 whole entry): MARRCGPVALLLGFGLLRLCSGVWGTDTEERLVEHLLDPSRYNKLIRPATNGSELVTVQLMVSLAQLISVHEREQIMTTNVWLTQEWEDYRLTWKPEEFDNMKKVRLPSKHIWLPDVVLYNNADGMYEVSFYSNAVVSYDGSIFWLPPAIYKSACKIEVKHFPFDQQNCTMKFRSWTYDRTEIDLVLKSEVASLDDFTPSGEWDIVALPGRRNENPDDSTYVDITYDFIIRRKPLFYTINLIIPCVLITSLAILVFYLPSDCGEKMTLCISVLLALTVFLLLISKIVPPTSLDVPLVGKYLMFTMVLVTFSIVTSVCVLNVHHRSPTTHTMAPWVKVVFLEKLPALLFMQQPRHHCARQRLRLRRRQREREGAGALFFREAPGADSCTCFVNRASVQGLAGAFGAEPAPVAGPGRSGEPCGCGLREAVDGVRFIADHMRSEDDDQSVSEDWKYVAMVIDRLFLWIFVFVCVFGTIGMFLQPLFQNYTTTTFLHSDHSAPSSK
Sequence (P43681 whole entry): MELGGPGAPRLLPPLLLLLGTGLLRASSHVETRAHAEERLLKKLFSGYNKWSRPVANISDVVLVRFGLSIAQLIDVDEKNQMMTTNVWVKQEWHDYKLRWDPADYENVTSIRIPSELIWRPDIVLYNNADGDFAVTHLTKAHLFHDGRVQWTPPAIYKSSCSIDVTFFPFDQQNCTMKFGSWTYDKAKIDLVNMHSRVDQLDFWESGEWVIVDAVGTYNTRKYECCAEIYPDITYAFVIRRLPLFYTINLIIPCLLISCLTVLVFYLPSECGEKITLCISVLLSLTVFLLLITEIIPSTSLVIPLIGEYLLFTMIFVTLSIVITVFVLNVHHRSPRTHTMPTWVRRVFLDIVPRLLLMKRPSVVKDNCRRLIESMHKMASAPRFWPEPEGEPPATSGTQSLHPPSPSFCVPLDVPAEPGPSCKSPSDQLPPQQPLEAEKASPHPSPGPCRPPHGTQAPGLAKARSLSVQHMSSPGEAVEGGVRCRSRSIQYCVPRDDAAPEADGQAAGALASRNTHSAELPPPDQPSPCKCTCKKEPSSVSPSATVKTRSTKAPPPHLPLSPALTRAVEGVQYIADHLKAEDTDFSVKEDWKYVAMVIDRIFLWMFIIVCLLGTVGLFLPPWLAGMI
Assay: Antagonist activity at human nAChR alpha4/beta2 receptor expressed in HEK ts201 cells assessed as calcium accumulation by fluorescence analysis
Format: functional, cell-based
Details: read-out: pIC50 (converted)
IC50 strictly under 7 µM means T; at 7 µM or over means F.

Here's an entry: CC1CC(=O)N(c2ccccc2C(=O)OCC2CCCN(CCCCCOc3ccccc3)C2)C1=O (stereo unspecified) . Is its IC50 below 7 µM?
F

Here's an entry: COc1ccc(OCCCCCN2CCCC(COC(=O)c3cc(=O)c4ccccc4o3)C2)cc1 (stereo unspecified) . Is its IC50 below 7 µM?
F

Here's an entry: c1ccc(-c2ccccc2COCC2CCCNC2)cc1 (stereo unspecified) . Is its IC50 below 7 µM?
T

Here's an entry: COc1ccc(OCCCCCN2CCCC(COC(=O)c3ccccc3-c3ccccc3)C2)cc1 (stereo unspecified) . Is its IC50 below 7 µM?
F

Here's an entry: CCN1CC(OC(=O)c2ccccc2N2C(=O)CC(C)C2=O)C2CC1C1OC(C)(C)OC21 (stereo unspecified) . Is its IC50 below 7 µM?
F

Here's an entry: O=C(OCC1CCCN(CCc2ccccc2)C1)c1ccccc1N1C(=O)CC(Cc2ccccc2)C1=O (stereo unspecified) . Is its IC50 below 7 µM?
T

Here's an entry: CC1CC(=O)N(c2ccccc2C(=O)OCC2CCCN(CCOc3ccc4ccccc4c3)C2)C1=O (stereo unspecified) . Is its IC50 below 7 µM?
F

Here's an entry: CC1CC(=O)N(c2ccccc2C(=O)OCC2CCCN(CCOc3cccc(Cl)c3)C2)C1=O (stereo unspecified) . Is its IC50 below 7 µM?
F

Here's an entry: CC1(C)OC2C3CC(C2O1)N(CCCc1ccccc1)CC3OC(=O)c1ccccc1-c1ccccc1 (stereo unspecified) . Is its IC50 below 7 µM?
F

Here's an entry: CC1CC(=O)N(c2ccccc2C(=O)OCC2CCCN(CCCCCc3ccccc3)C2)C1=O (stereo unspecified) . Is its IC50 below 7 µM?
F

Here's an entry: CC1CC(=O)N(c2ccccc2C(=O)OC[C@@H]2C[C@H](c3ccccc3)CN(CCCc3ccccc3)C2)C1=O (stereo partly specified) . Is its IC50 below 7 µM?
T

Here's an entry: CC1CC(=O)N(c2ccccc2C(=O)OC2CN(C(C)C)C3CC2C2OC(C)(C)OC23)C1=O (stereo unspecified) . Is its IC50 below 7 µM?
F

Here's an entry: O=C(OCc1ccccc1-c1ccccc1)C1CCCN(CCCc2ccccc2)C1 (single isomer, unassigned) . Is its IC50 below 7 µM?
F

Here's an entry: O=C(OCC1CCCN(CCCc2ccccc2)C1)c1ccc(-c2ccccc2)cc1 (stereo unspecified) . Is its IC50 below 7 µM?
T

Here's an entry: CC(=O)Nc1ccccc1C(=O)OCC1CCCN(CCCc2ccccc2)C1 (stereo unspecified) . Is its IC50 below 7 µM?
T

Here's an entry: CC1CC(=O)N(c2ccccc2C(=O)OC[C@@H]2C[C@H](C3CCCCC3)CN(CCCc3ccccc3)C2)C1=O (stereo partly specified) . Is its IC50 below 7 µM?
F

Here's an entry: O=C(OCC1CCCN(CCCc2ccccc2)C1)c1ccccc1N1C(=O)CC(Cc2ccc(Cl)cc2)C1=O (stereo unspecified) . Is its IC50 below 7 µM?
F

Here's an entry: CC1CC(=O)N(c2ccccc2C(=O)OCC2CCCN(CCOc3ccc(Cl)c(Cl)c3)C2)C1=O (stereo unspecified) . Is its IC50 below 7 µM?
F

Here's an entry: C[C@H]1CC(=O)N(c2ccccc2C(=O)OC[C@H]2CCCN(CCCc3ccccc3)C2)C1=O . Is its IC50 below 7 µM?
F

Here's an entry: CC1(C)CC(=O)N(c2ccccc2C(=O)OCC2CCCN(CCCc3ccccc3)C2)C1=O (single isomer, unassigned) . Is its IC50 below 7 µM?
T

Here's an entry: Cc1ccc(OCCN2CCCC(COC(=O)c3ccccc3N3C(=O)CC(C)C3=O)C2)cc1 (stereo unspecified) . Is its IC50 below 7 µM?
F

Here's an entry: C[N+]1(C)CCCC(COC(=O)c2ccccc2-c2ccccc2)C1 (single isomer, unassigned) . Is its IC50 below 7 µM?
T

Here's an entry: COc1ccc(OCCCCCN2CCCC(COC(=O)c3ccccc3N3C(=O)CC(C)C3=O)C2)cc1OC (stereo unspecified) . Is its IC50 below 7 µM?
F

Here's an entry: COc1ccccc1C(=O)OCC1CCCN(CCCc2ccccc2)C1 (single isomer, unassigned) . Is its IC50 below 7 µM?
F

Here's an entry: CC1CC(=O)N(c2ccccc2C(=O)OCC2CCCN(CCCCCOc3ccc(Cl)c(Cl)c3)C2)C1=O (stereo unspecified) . Is its IC50 below 7 µM?
F

Here's an entry: O=C(OCC1CCCN(CCCc2ccccc2)C1)c1ccccc1-n1cc(-c2ccccc2)nn1 (single isomer, unassigned) . Is its IC50 below 7 µM?
T

Here's an entry: CC1CC(=O)N(c2ccccc2C(=O)OCC2CCCN(CCCCOc3ccc(Cl)c(Cl)c3)C2)C1=O (stereo unspecified) . Is its IC50 below 7 µM?
F

Here's an entry: CC1CC(=O)N(c2ccccc2C(=O)OCC2CCCN(CCCCCCc3ccccc3)C2)C1=O (stereo unspecified) . Is its IC50 below 7 µM?
F

Here's an entry: COc1ccc(OCCCCCN2CCCC(COC(=O)c3ccccc3N3C(=O)CC(C)C3=O)C2)cc1 (stereo unspecified) . Is its IC50 below 7 µM?
F

Here's an entry: COc1ccc(OCCCCCN2CCCC(COC(=O)c3coc4ccccc4c3=O)C2)cc1 (stereo unspecified) . Is its IC50 below 7 µM?
F

Here's an entry: c1ccc(CCCN2CCCC(COCc3cn(Cc4ccccc4-c4ccccc4)nn3)C2)cc1 (stereo unspecified) . Is its IC50 below 7 µM?
T

Here's an entry: COc1ccc(OCCN2CCCC(COC(=O)c3ccccc3N3C(=O)CC(C)C3=O)C2)cc1 (stereo unspecified) . Is its IC50 below 7 µM?
F

Here's an entry: CC1CC(=O)N(c2ccccc2C(=O)OCC2CCCN(CCCCOc3ccccc3)C2)C1=O (stereo unspecified) . Is its IC50 below 7 µM?
T

Here's an entry: [N-]=[N+]=NCCCN1CCCC(COC(=O)c2ccccc2-c2ccccc2)C1 (single isomer, unassigned) . Is its IC50 below 7 µM?
T

---

Target: Neuronal acetylcholine receptor; alpha4/beta2 (Homo sapiens, UniProt P17787+P43681)
Assay: Antagonist activity at human nAChR alpha4/beta2 receptor expressed in HEK ts201 cells assessed as calcium accumulation by fluorescence analysis
Format: functional, cell-based
Settings: read-out: pIC50 (converted)
So I've got a bunch of compounds here, and I need their IC50 values.
Lab book: enter the figure in µM, no units written.

// Input: O=C(OCC1CCCN(CCCc2ccccc2)C1)c1ccccc1N1C(=O)c2ccccc2C1=O (single isomer, unassigned) . Output its IC50 only.
5.01

// Input: C[C@@H]1CC(=O)N(c2ccccc2C(=O)OC[C@@H]2CCCN(CCCc3ccccc3)C2)C1=O . Output its IC50 only.
8.91

// Input: O=C(NCc1ccccc1-c1ccccc1)C1CCCN(CCCc2ccccc2)C1 (single isomer, unassigned) . Output its IC50 only.
16.6

// Input: O=C(OCC1CCCN(CCCc2ccccc2)C1)c1ccccc1Cl (single isomer, unassigned) . Output its IC50 only.
9.33

// Input: O=C(CCC1CCCNC1)c1ccccc1-c1ccccc1 (stereo not drawn) . Output its IC50 only.
9.12

// Input: COc1cccc(OCCCCCN2CCCC(COC(=O)c3ccccc3N3C(=O)CC(C)C3=O)C2)c1OC (stereo not drawn) . Output its IC50 only.
8.71

// Input: O=C(OCC1CCCN(C(=O)CCc2ccccc2)C1)c1ccccc1-c1ccccc1 (stereo not drawn) . Output its IC50 only.
6.03

// Input: c1ccc(CCCN2CCCC(COCc3ccccc3-c3ccccc3)C2)cc1 (stereo not drawn) . Output its IC50 only.
12.6

// Input: O=C(OCC1CCCN(CCCc2ccccc2)C1)c1ccccc1N1C(=O)CC(CCc2ccccc2)C1=O (stereo not drawn) . Output its IC50 only.
5.13

// Input: O=C(NCC1CCCN(CCCc2ccccc2)C1)c1ccccc1-c1ccccc1 (single isomer, unassigned) . Output its IC50 only.
20

// Input: CCN1CCCC(COC(=O)c2ccccc2N2C(=O)CC(Cc3ccccc3)C2=O)C1 (stereo not drawn) . Output its IC50 only.
4.47

// Input: CC1CC(=O)N(c2ccccc2C(=O)OCC2CCCN(CCc3c[nH]c4ccccc34)C2)C1=O (stereo not drawn) . Output its IC50 only.
5.62

// Input: O=C(OCC1CCCN(CCCn2cc(-c3ccccc3)nn2)C1)c1ccccc1-c1ccccc1 (single isomer, unassigned) . Output its IC50 only.
6.46

// Input: O=C(CCc1ccccc1)N1CCCC(CN(Cc2ccccc2-c2ccccc2)Cc2ccccc2-c2ccccc2)C1 (stereo not drawn) . Output its IC50 only.
20.9

// Input: O=C(OCC1CCCNC1)c1ccccc1-c1ccccc1 (single isomer, unassigned) . Output its IC50 only.
7.08

// Input: O=C(OCC1=CCCN(CCCc2ccccc2)C1)c1ccccc1N1C(=O)CC(Cc2ccccc2)C1=O (stereo not drawn) . Output its IC50 only.
5.13

// Input: CC1CC(=O)N(c2ccccc2C(=O)OCC2CCCN(CCCC3CCCCC3)C2)C1=O (stereo not drawn) . Output its IC50 only.
14.5

// Input: CC(C)N1CCCC(COC(=O)c2ccccc2N2C(=O)CC(Cc3ccccc3)C2=O)C1 (stereo not drawn) . Output its IC50 only.
8.91
